All figures here come from patent US20120172293A1.

# experimental.system: human Y2 receptor (human) (UniProt P49146)
# Sequence (P49146 whole entry): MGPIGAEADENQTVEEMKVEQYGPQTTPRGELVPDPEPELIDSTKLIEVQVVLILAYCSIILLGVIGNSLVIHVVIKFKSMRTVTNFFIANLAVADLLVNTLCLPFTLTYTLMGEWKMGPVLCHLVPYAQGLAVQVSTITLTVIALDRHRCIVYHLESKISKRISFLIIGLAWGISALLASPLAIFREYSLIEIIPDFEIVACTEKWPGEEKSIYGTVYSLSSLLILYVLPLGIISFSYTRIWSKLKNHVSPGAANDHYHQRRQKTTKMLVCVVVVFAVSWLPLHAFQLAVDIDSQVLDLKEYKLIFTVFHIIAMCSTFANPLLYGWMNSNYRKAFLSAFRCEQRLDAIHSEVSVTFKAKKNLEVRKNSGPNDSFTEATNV
# procedure.text: RBA: displacement of [125I]-PYY from hY2R/CHO membranes
Non-standard residues stand in square brackets, D forms with d. *: point of attachment. βHOAla = beta-homoalanine (β-HOAla), D- or L-form; 4Pal = N[C@@H](Cc1ccncc1)C(=O)O; Cha = N[C@@H](CC1CCCCC1)C(=O)O; Isonicotinoyl = O=C(c1ccncc1)*; Iva = CC[C@](C)(N)C(=O)O; Aib = CC(C)(N)C(=O)O
# maps each entry to its IC50 Ratio (IC50 compound/IC50 PYY(3-36))
parameter: IC50 Ratio (IC50 compound/IC50 PYY(3-36))

binder	endpoint.value
Ac-S[dP][Iva]H[Cha][Aib]NK[Aib]TRQR[Cha]-NH2 (SMILES CC[C@](C)(NC(=O)[C@H]1CCCN1C(=O)[C@H](CO)NC(C)=O)C(=O)N[C@@H](Cc1c[nH]cn1)C(=O)N[C@@H](CC1CCCCC1)C(=O)NC(C)(C)C(=O)N[C@@H](CC(N)=O)C(=O)N[C@@H](CCCCN)C(=O)NC(C)(C)C(=O)N[C@H](C(=O)N[C@@H](CCCNC(=N)N)C(=O)N[C@@H](CCC(N)=O)C(=O)N[C@@H](CCCNC(=N)N)C(=O)N[C@@H](CC1CCCCC1)C(N)=O)[C@@H](C)O) [Ac-[D-Pro24, Iva25, Cha27,36, Aib28,31, Lys30]-PYY(23-36)]	8.8
Ac-S[βHOAla]R[4Pal][Cha][Aib]NK[Aib]TRQR[Cha]-NH2 (also: later peak isomer, β-HOAla configuration D or L not assigned) [Ac-[β-HOAla24, Pya(4)26, Cha27,36, Aib28,31, Lys30]-PYY(23-36) later peak]	0.85
Isonicotinoyl-S[dP][Iva][4Pal][Cha][Aib]NK[Aib]TRQR[Cha]-NH2 (SMILES CC[C@](C)(NC(=O)[C@H]1CCCN1C(=O)[C@H](CO)NC(=O)c1ccncc1)C(=O)N[C@@H](Cc1ccncc1)C(=O)N[C@@H](CC1CCCCC1)C(=O)NC(C)(C)C(=O)N[C@@H](CC(N)=O)C(=O)N[C@@H](CCCCN)C(=O)NC(C)(C)C(=O)N[C@H](C(=O)N[C@@H](CCCNC(=N)N)C(=O)N[C@@H](CCC(N)=O)C(=O)N[C@@H](CCCNC(=N)N)C(=O)N[C@@H](CC1CCCCC1)C(N)=O)[C@@H](C)O) [4-Pyridinecarbonyl-[D-Pro24, Iva25, Pya(4)26, Cha27,36, Aib28,31, Lys30]-PYY(23-36)]	1
